The entries below come with measured melting point values attached.
Give just the number in °C; leave the unit off.

Cc1ccc(C(=O)C2=C(O)C(=O)N(c3ccc(C)nn3)C2c2ccc(C)cc2C)cc1 (stereo not drawn) : 254
Cc1ccc(C(=O)C2=C(O)C(=O)N(c3ccc(N(C)C)nn3)C2c2ccc(C(C)C)cc2)cc1 (stereo not drawn) : 281

Returns the measured melting point for the input molecule. Input: Cc1ccc(N2C(=O)C(O)=C(C(=O)c3ccc(C(C)C)cc3)C2c2ccc(C(C)C)cc2)nn1 (stereo not drawn)
271

Returns the measured melting point for the input molecule. Input: Cc1ccc(N2C(=O)C(O)=C(C(=O)c3ccc(C(C)C)cc3)C2c2ccc(C(C)C)cc2)cn1.Cl (stereo not drawn)
165

Returns the measured melting point for the input molecule. Input: COc1ccc(C(=O)C2=C(O)C(=O)N(c3ccc(C)nn3)C2c2ccc(OC(F)(F)F)cc2)cc1 (stereo not drawn)
265

Returns the measured melting point for the input molecule. Input: Cc1ccc(N2C(=O)C(O)=C(C(=O)c3ccc(C(C)C)cc3)C2c2ccc(Cn3nccn3)cc2)nn1 (stereo not drawn)
285

Returns the measured melting point for the input molecule. Input: COc1ccc(C2C(C(=O)c3ccc(C)cc3)=C(O)C(=O)N2c2ccc(C)nn2)cc1 (stereo not drawn)
266

Returns the measured melting point for the input molecule. Input: Cc1ccc(N2C(=O)C(O)=C(C(=O)c3ccc(OC(F)(F)F)cc3)C2c2ccc(Cn3ncnn3)cc2)nn1 (stereo not drawn)
258

Returns the measured melting point for the input molecule. Input: Cc1ccc(C(=O)C2=C(O)C(=O)N(c3ccc(C)nn3)C2c2cccc(C(F)(F)F)c2)cc1 (stereo not drawn)
232

---

The entries below come with measured EC50 values attached.
test_system: HCV NS5B genotype 1b (Hepatitis C virus genotype 1b)
Construct: The protein was expressed with a 21 amino acid C-terminal deletion to remove transmembrane domain; expressed in transfected cells; host or cells: Huh-7
assay_name: 3D-SCREEN assay (NS5B 3D-Screen platform, luciferase reporter gene)
Format: cell-based
run_conditions: EC50_3DS_NS5B, Table 2, titled Replicon assay results

Cc1ccc(N2C(=O)C(O)=C(C(=O)c3ccc(C(C)C)cc3)C2c2ccc(OC(F)(F)F)cc2)cn1 (stereo not shown) : < 1 µM
Cc1ccc(N2C(=O)C(NS(C)(=O)=O)=C(C(=O)c3ccc(C(C)C)cc3)C2c2ccc(OC(F)(F)F)cc2)nn1 (stereo not shown) : < 1 µM
Cc1ccc(N2C(=O)C(O)=C(C(=O)c3ccc(C(C)C)cc3)C2c2ccc(OC3CCOCC3)cc2)nn1 (stereo not shown) : < 10 µM
CC(C)c1ccc(C(=O)C2=C(O)C(=O)N(c3cccn(C)c3=O)C2c2ccc(OC(F)(F)F)cc2)cc1 (stereo not shown) : < 10 µM
Cc1ccc(N2C(=O)C(O)=C(C(=O)c3ccc(C(C)C)cc3)C2c2ccc(N(C)C)cc2)nn1 (stereo not shown) : < 10 µM

Returns the measured EC50 for the input compound. Input: CC(=O)OC1=C(C(=O)c2ccc(C(C)C)cc2)C(c2ccc(OC(F)(F)F)cc2)N(c2ccc(C)nn2)C1=O (stereo not shown)
< 0.1 µM

Returns the measured EC50 for the input compound. Input: Cc1ccc(N2C(=O)C(O)=C(C(=O)c3ccc(C(C)C)cc3)C2c2ccc(Cn3nccn3)cc2)nn1 (stereo not shown)
< 10 µM

---

test_system: HCV NS5B genotype 1b (Hepatitis C virus genotype 1b)
Construct: The protein was expressed with a 21 amino acid C-terminal deletion to remove transmembrane domain; expressed in transfected cells; host or cells: Huh-7
assay_name: 3D-SCREEN assay (NS5B 3D-Screen platform, luciferase reporter gene)
Format: cell-based
run_conditions: EC50_3DS_NS5B, Table 1, 3D-SCREEN assay results; Huh-7 cells, 24 hours with compound, firefly luciferase reporter
The entries below come with measured pEC50 values attached.
Kindly note that pEC50 refers to -log10 of the concentration in mol/L and answer with the value alone.

Record excerpt, results attached:
Cc1ccc(N2C(=O)C(O)=C(C(=O)c3ccc(C(C)C)cc3)C2c2ccc(C(F)(F)F)cc2)nn1 (stereo not drawn) : 7.22
Cc1ccc(C(=O)C2=C(O)C(=O)N(c3ccc(C)nn3)C2c2ccc(C(C)C)cc2)cc1 (stereo not drawn) : 5.70

Returns the measured pEC50 for the input molecule. Input: Cc1ccc(C(=O)C2=C(O)C(=O)N(c3ccc(C#N)cn3)C2c2ccc(C(C)C)cc2)cc1 (stereo not drawn)
5.05

Returns the measured pEC50 for the input molecule. Input: COc1ccc(C(=O)C2=C(O)C(=O)N(c3ccc(C)nn3)C2c2ccc(C(C)(C)C)cc2)cc1 (stereo not drawn)
5.52
